assay_info: Plasma pharmacokinetics, noncompartmental analysis
Format: in vivo, human
study_conditions: human, plasma, oral, apparent volume of distribution during the terminal phase, overall gMean, all groups (data not shown)
measured_quantity: Vd
Answer with the value and then the unit.

query: Give the value of Vd reported for the following: CN(C)C/C=C/C(=O)Nc1cc2c(Nc3ccc(F)c(Cl)c3)ncnc2cc1O[C@H]1CCOC1 [afatinib]
result: 3630 L

* * *

assay_info: Plasma pharmacokinetics, noncompartmental analysis
Assay type: in vivo, human
study_conditions: human, plasma, oral, total body clearance, gMean, range across dose groups
measured_quantity: clearance

query: Give the value of clearance reported for the following: CN(C)C/C=C/C(=O)Nc1cc2c(Nc3ccc(F)c(Cl)c3)ncnc2cc1O[C@H]1CCOC1
result: 567 to 2980 mL/min

* * *

assay_info: Plasma pharmacokinetics, noncompartmental analysis
Format: in vivo, human
study_conditions: human, plasma, oral, total body clearance, overall gMean, across all groups (data not shown)
measured_quantity: clearance (mL/min)
Give bare numbers, in mL/min.

query: Give the value of clearance reported for the following: CN(C)C/C=C/C(=O)Nc1cc2c(Nc3ccc(F)c(Cl)c3)ncnc2cc1O[C@H]1CCOC1
result: 1330

* * *

assay_info: Plasma pharmacokinetics, noncompartmental analysis
Type: in vivo, human
study_conditions: human, plasma, po
measured_quantity: half-life

query: Give the value of half-life reported for the following: CN(C)C/C=C/C(=O)Nc1cc2c(Nc3ccc(F)c(Cl)c3)ncnc2cc1O[C@H]1CCOC1 [afatinib]
result: 34 to 48 h
